Listed here are compounds together with their documented IC50.
- Measured Target: Human Calpain 1/NS1 (Homo sapiens, UniProt P07384)
- Sequence (P07384 1-714): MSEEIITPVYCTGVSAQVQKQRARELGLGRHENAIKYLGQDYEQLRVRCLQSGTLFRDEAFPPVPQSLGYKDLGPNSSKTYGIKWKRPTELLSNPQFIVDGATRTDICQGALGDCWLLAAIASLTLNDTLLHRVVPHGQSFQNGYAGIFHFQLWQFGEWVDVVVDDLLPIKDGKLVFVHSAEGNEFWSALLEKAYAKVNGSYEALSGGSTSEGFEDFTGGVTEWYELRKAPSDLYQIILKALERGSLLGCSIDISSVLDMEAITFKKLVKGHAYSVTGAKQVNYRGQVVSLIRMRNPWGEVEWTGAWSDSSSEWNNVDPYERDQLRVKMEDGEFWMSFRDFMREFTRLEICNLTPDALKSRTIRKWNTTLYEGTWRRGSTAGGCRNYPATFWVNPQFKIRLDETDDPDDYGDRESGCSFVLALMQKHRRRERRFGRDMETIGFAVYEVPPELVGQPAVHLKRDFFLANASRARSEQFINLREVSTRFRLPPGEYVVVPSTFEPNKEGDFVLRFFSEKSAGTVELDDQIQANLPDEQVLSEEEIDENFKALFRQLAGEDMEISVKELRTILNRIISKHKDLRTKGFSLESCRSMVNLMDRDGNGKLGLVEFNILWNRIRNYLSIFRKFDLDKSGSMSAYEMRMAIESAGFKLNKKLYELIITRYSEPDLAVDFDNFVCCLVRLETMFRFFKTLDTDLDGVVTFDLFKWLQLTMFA
- Sequence (P04632 1-268 partner): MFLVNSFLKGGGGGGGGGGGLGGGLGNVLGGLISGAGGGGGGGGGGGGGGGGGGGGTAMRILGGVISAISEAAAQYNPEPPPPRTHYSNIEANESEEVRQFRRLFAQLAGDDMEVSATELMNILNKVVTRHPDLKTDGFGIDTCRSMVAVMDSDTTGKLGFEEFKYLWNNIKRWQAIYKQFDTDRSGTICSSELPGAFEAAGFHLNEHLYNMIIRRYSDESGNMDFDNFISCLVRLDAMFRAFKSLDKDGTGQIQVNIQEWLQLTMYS
- Measurement Protocol: Calpain inhibition, continuous fluorescence (FRET substrate) assay, calpain 1
- Test Parameters: SensoLyte 520 FRET substrate, 25C

## Task I'm curious: which IC50 was measured for NC(=O)C(=O)C(Cc1ccccc1)NC(=O)c1cn(C(F)F)nc1-c1cccc2ncsc12 (stereo not shown) tested on Human Calpain 1/NS1 (Homo sapiens, UniProt P07384)?
## Result < 3 µM

---

Quick reference for pIC50 among some molecules
- Measured Target: Human Calpain 9/NS1 (Homo sapiens)
- Measurement Protocol: Calpain inhibition, continuous fluorescence (FRET substrate) assay, calpain 9
- Test Parameters: SensoLyte 520 FRET substrate, 25C
pIC50: −log10 of the molar value.

Cc1nc(-c2cccc3ccsc23)c(C(=O)NC(Cc2ccccc2)C(=O)C(N)=O)o1 (stereo not shown) [Compound 91]; > 5.52
O=C(NC(Cc1ccccc1)C(=O)CO)c1nsnc1-c1ccccc1 (stereo not shown) [Compound 111]; < 5.00
Cn1cc(C(=O)NC(Cc2ccccc2)C(=O)C(N)=O)c(-c2cnc3ccccc3n2)n1 (stereo not shown) [Compound 13]; > 5.52
NC(=O)C(=O)C(Cc1ccccc1)NC(=O)c1oc(C(F)F)nc1-c1cccc2cn[nH]c12 (stereo not shown) [Compound 94]; > 5.52
Cc1cc(C(=O)NC(Cc2ccccc2)C(=O)C(N)=O)nn1-c1ncc(-c2ccccc2)cn1 (stereo not shown) [Compound 29]; 5.00 to 5.52

## Task Returns the measured pIC50 for the input molecule. Input: Cn1cc(C(=O)NC(Cc2ccccc2)C(=O)C(N)=O)c(-n2cnc3cc(F)ccc32)n1 (stereo not shown) [Compound 48]
## Result > 5.52

## Task Request: Cc1nc(-c2cc(Cl)oc2C)c(C(=O)NC(Cc2ccccc2)C(=O)C(N)=O)o1 (stereo not shown) [Compound 98]
## Result > 5.52

## Task Entry to check: Cn1cc(C(=O)NC(Cc2ccccc2)C(=O)C(N)=O)c(-c2cccc3ccsc23)n1 (stereo not shown) [Compound 101]
## Result > 5.52

## Task What do we get for Cn1cc(C(=O)NC(Cc2ccccc2)C(=O)C(N)=O)c(-c2cccc3cccnc23)n1 (stereo not shown) [Compound 14] ?
## Result > 5.52

## Task How about Cc1cc(-c2nc(C)oc2C(=O)NC(Cc2ccccc2)C(=O)C(N)=O)c(C)o1 (stereo not shown) [Compound 78] ?
## Result > 5.52

## Task Moving on to the next molecule: NC(=O)C(=O)C(Cc1ccccc1)NC(=O)c1cn(C(F)F)nc1-c1nccc2ccccc12 (stereo not shown) [Compound 4]
## Result > 5.52

## Task Same read-out for Cn1cc(C(=O)NC(Cc2ccccc2)C(=O)C(N)=O)c(-c2cccc3sccc23)n1 (stereo not shown) [Compound 102] ?
## Result > 5.52

## Task Query Cn1cc(C(=O)NC(Cc2ccccc2)C(=O)C(N)=O)c(-c2cccc3scnc23)n1 (stereo not shown) [Compound 51] next
## Result > 5.52

## Task What about this molecule? O=C(O)C(=O)C(Cc1ccccc1)NC(=O)c1nsnc1-c1cccc2c1OC(F)(F)O2 (stereo not shown) [Compound 107]
## Result > 5.52

## Task Again, but for Cn1cc(C(=O)NC(Cc2ccccc2)C(=O)C(N)=O)c(-c2cccc3ocnc23)n1 (stereo not shown) [Compound 68]
## Result > 5.52

## Task Subsequent entry: O=C(NC(Cc1ccccc1)C(=O)c1ncco1)c1nsnc1-c1ccccc1 (stereo not shown) [Compound 85]
## Result < 5.00

## Task Do the same for Cc1cc(C(=O)NC(Cc2ccccc2)C(=O)C(N)=O)nn1-c1ncc2ccccc2n1 (stereo not shown) [Compound 27] please
## Result 5.00 to 5.52

## Task Queued: CC(C)n1ncc2c(-c3nn(C)cc3C(=O)NC(Cc3ccccc3)C(=O)C(N)=O)cccc21 (stereo not shown) [Compound 100]
## Result > 5.52

---

- Measured Target: Human Calpain 1/NS1 (Homo sapiens, UniProt P07384)
- Measurement Protocol: Calpain inhibition, continuous fluorescence (FRET substrate) assay, calpain 1
- Test Parameters: SensoLyte 520 FRET substrate, 25C
Readout: IC50

Cc1nc(-c2coc(Cl)c2)c(C(=O)NC(Cc2ccccc2)C(=O)C(N)=O)o1 (stereo not shown); < 3 µM

## Task Reported IC50 for Cn1cc(C(=O)NC(Cc2ccccc2)C(=O)C(N)=O)c(-n2cnc3ccc(F)cc32)n1 (stereo not shown) : what is it?
## Result < 3 µM

## Task Another compound: COc1cccc(-c2nn(C)cc2C(=O)NC(Cc2ccccc2)C(=O)C(N)=O)c1OC (stereo not shown)
## Result 3 to 10 µM

## Task Queued: Cc1nc(-c2ccccc2F)c(C(=O)NC(Cc2ccccc2F)C(=O)C(N)=O)o1 (stereo not shown)
## Result < 3 µM

---

- Measured Target: Human Calpain 1/NS1 (Homo sapiens)
- Measurement Protocol: Calpain inhibition, continuous fluorescence (FRET substrate) assay, calpain 1
- Type: biochemical
- Test Parameters: SensoLyte 520 FRET substrate, 25C
Readout: IC50

Guide cases for IC50, answers given:
Cn1cc(C(=O)NC(Cc2ccccc2)C(=O)C(=O)O)c(-c2ccccc2F)n1 (stereo not drawn); < 3 µM
Cn1cc(C(=O)NC(Cc2ccccc2)C(=O)C(N)=O)c(-c2cccc3nn(C)cc23)n1 (stereo not drawn); < 3 µM
Cn1cc(C(=O)NC(Cc2ccccc2)C(=O)C(N)=O)c(-c2nccc3ccccc23)n1 (stereo not drawn); 3 to 10 µM
Cn1cc(C(=O)NC(Cc2ccccc2)C(=O)C(N)=O)c(-c2cccc3cccnc23)n1 (stereo not drawn); < 3 µM
Cc1cc(C(=O)NC(Cc2ccccc2)C(=O)C(N)=O)nn1-c1nccc(-c2ccccc2)n1 (stereo not drawn); > 10 µM
Cn1cc2c(-c3nn(C(F)F)cc3C(=O)NC(Cc3ccccc3)C(=O)C(N)=O)cccc2n1 (stereo not drawn); < 3 µM

With those in mind, consider the next compound.
## Task So what does the record say about IC50 for NC(=O)C(=O)C(Cc1ccccc1)NC(=O)c1cn(C(F)F)nc1-c1cccc2ccncc12 (stereo not drawn) ?
## Result < 3 µM

---

- Measured Target: Human Calpain 9/NS1 (Homo sapiens, UniProt O14815)
- Sequence (O14815 whole entry, one chain of several): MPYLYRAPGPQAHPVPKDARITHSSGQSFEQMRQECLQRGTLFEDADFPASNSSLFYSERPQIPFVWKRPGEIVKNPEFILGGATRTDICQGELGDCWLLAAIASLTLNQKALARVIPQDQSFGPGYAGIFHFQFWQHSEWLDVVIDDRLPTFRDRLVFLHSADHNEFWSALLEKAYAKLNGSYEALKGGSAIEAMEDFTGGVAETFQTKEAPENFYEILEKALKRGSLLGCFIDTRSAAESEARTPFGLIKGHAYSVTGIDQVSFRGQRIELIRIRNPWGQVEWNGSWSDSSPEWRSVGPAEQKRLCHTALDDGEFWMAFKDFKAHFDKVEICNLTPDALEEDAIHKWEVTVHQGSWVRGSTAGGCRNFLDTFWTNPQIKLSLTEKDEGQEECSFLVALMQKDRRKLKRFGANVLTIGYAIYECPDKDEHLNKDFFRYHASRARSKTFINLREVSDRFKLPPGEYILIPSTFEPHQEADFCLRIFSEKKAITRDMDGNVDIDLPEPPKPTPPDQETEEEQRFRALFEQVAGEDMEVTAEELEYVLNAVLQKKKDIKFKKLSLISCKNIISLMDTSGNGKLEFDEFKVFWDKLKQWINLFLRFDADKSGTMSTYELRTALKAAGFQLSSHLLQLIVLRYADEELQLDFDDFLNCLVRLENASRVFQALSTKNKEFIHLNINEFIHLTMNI
- Measurement Protocol: Calpain inhibition, continuous fluorescence (FRET substrate) assay, calpain 9
- Test Parameters: SensoLyte 520 FRET substrate, 25C
Each entry below lists one item and its recorded IC50 value.

NC(=O)C(=O)C(Cc1ccccc1)NC(=O)c1cn(C(F)F)nc1-c1cccc2scnc12 (stereo not shown) [Compound 70]; < 3 µM
Cc1cc(C(=O)NC(Cc2ccccc2)C(=O)C(N)=O)nn1-c1nccc(-c2ccccc2)n1 (stereo not shown) [Compound 59]; > 10 µM
Cn1cc2cccc(-c3nn(C(F)F)cc3C(=O)NC(Cc3ccccc3)C(=O)C(N)=O)c2n1 (stereo not shown) [Compound 77]; < 3 µM

Please look at the following molecule next.
## Task Which IC50 value belongs to Cc1nc(-c2c(F)cccc2F)c(C(=O)NC(Cc2ccccc2)C(=O)C(N)=O)o1 (stereo not shown) [Compound 76] ?
## Result < 3 µM
